The measured values listed here are drawn from patent US4927919A.

protocol: Acute toxicity (LD50, single intravenous administration)
Design: species or system day mice
measurement-conditions: mouse, in vivo, mice, single i.v., Preparation Example 2
Listed below: LD50 values for each entry.
value-type: LD50

molecule	value-type	value
COC1C(O)C(C)OC(OC2C(Oc3cccc4c(OC(=O)CCc5ccc6c(c5)OCO6)c5c(=O)oc6ccc(C)c7c(=O)oc(c34)c5c67)OC(C)C3OC(c4ccccc4)OC32)C1O (stereo not shown)	LD50	≥ 40 mg/kg
COC1C(O)C(C)OC(OC2C(Oc3cccc4c(OC(=O)c5cccn5C)c5c(=O)oc6ccc(C)c7c(=O)oc(c34)c5c67)OC(C)C3OC(c4ccccc4)OC32)C1O (stereo not shown)	LD50	≥ 60 mg/kg
COC1C(O)C(C)OC(OC2C(Oc3cccc4c(OC(=O)c5cccs5)c5c(=O)oc6ccc(C)c7c(=O)oc(c34)c5c67)OC(C)C3OC(C)(C)OC32)C1O (stereo not shown)	LD50	≥ 80 mg/kg
COC1C(O)C(C)OC(OC2C(Oc3cccc4c(OC(=O)c5ccco5)c5c(=O)oc6ccc(C)c7c(=O)oc(c34)c5c67)OC(C)C3OC(c4ccccc4)OC32)C1O (stereo not shown)	LD50	≥ 60 mg/kg
COC1C(O)C(C)OC(OC2C(Oc3cccc4c(OC(=O)Cc5ccc6c(c5)OCO6)c5c(=O)oc6ccc(C)c7c(=O)oc(c34)c5c67)OC(C)C3OC(c4ccccc4)OC32)C1O (stereo not shown)	LD50	≥ 40 mg/kg
COC1C(O)C(C)OC(OC2C(Oc3cccc4c(OC(=O)C=Cc5ccc6c(c5)OCO6)c5c(=O)oc6ccc(C)c7c(=O)oc(c34)c5c67)OC(C)C3OC(c4ccccc4)OC32)C1O (stereo not shown)	LD50	≥ 40 mg/kg
COC1C(O)C(C)OC(OC2C(Oc3cccc4c(OC(=O)c5ccc6[nH]ccc6c5)c5c(=O)oc6ccc(C)c7c(=O)oc(c34)c5c67)OC(C)C3OC(c4ccccc4)OC32)C1O (stereo not shown)	LD50	≥ 40 mg/kg
COc1ccc2[nH]c(C(=O)Oc3c4cccc(OC5OC(C)C6OC(c7ccccc7)OC6C5OC5OC(C)C(O)C(OC)C5O)c4c4oc(=O)c5c(C)ccc6oc(=O)c3c4c65)cc2c1 (stereo not shown)	LD50	≥ 40 mg/kg
COC1C(O)C(C)OC(OC2C(Oc3cccc4c(OC(=O)C5CC(=O)CC(C)(C)O5)c5c(=O)oc6ccc(C)c7c(=O)oc(c34)c5c67)OC(C)C3OC(c4ccccc4)OC32)C1O (stereo not shown)	LD50	≥ 40 mg/kg
COC1C(O)C(C)OC(OC2C(Oc3cccc4c(OC(=O)C5CCCN5C(=O)CNC(=O)CNC(=O)OCc5ccccc5)c5c(=O)oc6ccc(C)c7c(=O)oc(c34)c5c67)OC(C)C3OC(c4ccccc4)OC32)C1O (stereo not shown)	LD50	≥ 20 mg/kg

====

protocol: Acute toxicity (LD50, single intravenous administration)
Design: species or system day mice
measurement-conditions: mouse, in vivo, mice, single i.v., Preparation Example 8
Where a name gives a salt, the structure may show the parent alone.

compound	LD50
CNCCC(=O)Oc1c2cccc(OC3OC(C)C4OC(c5ccccc5)OC4C3OC3OC(C)C(N)C(OC)C3O)c2c2oc(=O)c3c(C)ccc4oc(=O)c1c2c43 (stereo not drawn)	≥ 40 mg/kg
COC1C(N)C(C)OC(OC2C(Oc3cccc4c(OC(=O)C(C)CN)c5c(=O)oc6ccc(C)c7c(=O)oc(c34)c5c67)OC(C)C3OC(c4ccccc4)OC32)C1O (stereo not drawn) [Compound 34, dihydrochloride]	≥ 40 mg/kg
CNCC(C)C(=O)Oc1c2cccc(OC3OC(C)C4OC(c5ccccc5)OC4C3OC3OC(C)C(N)C(OC)C3O)c2c2oc(=O)c3c(C)ccc4oc(=O)c1c2c43 (stereo not drawn)	≥ 40 mg/kg
COC1C(N)C(C)OC(OC2C(Oc3cccc4c(OC(=O)C(CN)C(C)C)c5c(=O)oc6ccc(C)c7c(=O)oc(c34)c5c67)OC(C)C3OC(c4ccccc4)OC32)C1O (stereo not drawn)	≥ 30 mg/kg
COC1C(N)C(C)OC(OC2C(Oc3cccc4c(OC(=O)CCN5CCCC5)c5c(=O)oc6ccc(C)c7c(=O)oc(c34)c5c67)OC(C)C3OC(c4ccccc4)OC32)C1O (stereo not drawn) [Compound 36, dihydrochloride]	≥ 20 mg/kg
COC1C(N)C(C)OC(OC2C(Oc3cccc4c(OC(=O)CCNC(=O)CN)c5c(=O)oc6ccc(C)c7c(=O)oc(c34)c5c67)OC(C)C3OC(c4ccccc4)OC32)C1O (stereo not drawn)	≥ 40 mg/kg

====

Entries annotated with measured LD50
protocol: Acute toxicity (LD50, single intravenous administration)
Parameters: species or system day mice
measurement-conditions: mouse, in vivo, mice, single i.v., Preparation Example 6
value-type: LD50

compound	value-type	value
COC1C(N)C(C)OC(OC2C(Oc3cccc4c(OC(=O)CCNC=O)c5c(=O)oc6ccc(C)c7c(=O)oc(c34)c5c67)OC(C)C3OC(c4cccc(Br)c4)OC32)C1O (stereo not drawn) [Compound 38]	LD50	≥ 80 mg/kg
COC1C(N)C(C)OC(OC2C(Oc3cccc4c(OC(=O)c5ccc(Cl)cc5)c5c(=O)oc6ccc(C)c7c(=O)oc(c34)c5c67)OC(C)C3OC(c4ccccc4)OC32)C1O (stereo not drawn) [Compound 52]	LD50	≥ 20 mg/kg
COC1C(N)C(C)OC(OC2C(Oc3cccc4c(OC(=O)c5cccc(C(F)(F)F)c5)c5c(=O)oc6ccc(C)c7c(=O)oc(c34)c5c67)OC(C)C3OC(c4ccccc4)OC32)C1O (stereo not drawn) [Compound 53]	LD50	≥ 40 mg/kg

====

protocol: Acute toxicity (LD50, single intravenous administration)
Set-up: species or system day mice
measurement-conditions: mouse, in vivo, mice, single i.v., Preparation Example 2
value-type: LD50

compound	value
COC1C(O)C(C)OC(OC2C(Oc3cccc4c(OC(=O)c5cccs5)c5c(=O)oc6ccc(C)c7c(=O)oc(c34)c5c67)OC(C)C3OC(c4ccccc4)OC32)C1O (stereo not drawn)	≥ 60 mg/kg
COC1C(O)C(C)OC(OC2C(Oc3cccc4c(OC(=O)C5CCCN(C)C5)c5c(=O)oc6ccc(C)c7c(=O)oc(c34)c5c67)OC(C)C3OC(c4ccccc4)OC32)C1O (stereo not drawn)	≥ 40 mg/kg
COC1C(O)C(C)OC(OC2C(Oc3cccc4c(OC(=O)C=Cc5c[nH]cn5)c5c(=O)oc6ccc(C)c7c(=O)oc(c34)c5c67)OC(C)C3OC(c4ccccc4)OC32)C1O (stereo not drawn)	≥ 40 mg/kg
COC1C(O)C(C)OC(OC2C(Oc3cccc4c(OC(=O)c5cc6cc(OCc7ccccc7)ccc6[nH]5)c5c(=O)oc6ccc(C)c7c(=O)oc(c34)c5c67)OC(C)C3OC(c4ccccc4)OC32)C1O (stereo not drawn)	≥ 60 mg/kg
COC1C(O)C(C)OC(OC2C(Oc3cccc4c(OC(=O)c5cc6ccccc6[nH]5)c5c(=O)oc6ccc(C)c7c(=O)oc(c34)c5c67)OC(C)C3OC(c4cccc(F)c4)OC32)C1O (stereo not drawn)	≥ 80 mg/kg
COC1C(O)C(C)OC(OC2C(Oc3cccc4c(OC(=O)CCCCC5CCSS5)c5c(=O)oc6ccc(C)c7c(=O)oc(c34)c5c67)OC(C)C3OC(c4ccccc4)OC32)C1O (stereo not drawn)	≥ 40 mg/kg

====

# LD50 per record follows
protocol: Acute toxicity (LD50, single intravenous administration)
Set-up: species or system day mice
measurement-conditions: mouse, in vivo, mice, single i.v., Preparation Example 3
Source text: In Table 15 are shown acute toxicity values (LD50, mg/kg) in day mice in the case of intravenously administering (once) each of the compounds of this invention in the form of preparations shown in the Preparation Examples shown in Table 16.

compound	LD50
COC1C(O)C(C)OC(OC2C(Oc3cccc4c(OC(=O)c5ccc(Br)o5)c5c(=O)oc6ccc(C)c7c(=O)oc(c34)c5c67)OC(C)C3OC(C)(C)OC32)C1O (stereo not drawn) [Compound 8]	≥ 80 mg/kg
COC1C(O)C(C)OC(OC2C(Oc3cccc4c(OC(=O)C5CCN(C(=O)C(F)(F)F)CC5)c5c(=O)oc6ccc(C)c7c(=O)oc(c34)c5c67)OC(C)C3OC(C)(C)OC32)C1O (stereo not drawn) [Compound 23]	≥ 40 mg/kg
COC1C(O)C(C)OC(OC2C(Oc3cccc4c(OC(=O)C5CCCN5C(=O)OCc5ccccc5)c5c(=O)oc6ccc(C)c7c(=O)oc(c34)c5c67)OC(C)C3OC(C)(C)OC32)C1O (stereo not drawn) [Compound 3]	≥ 160 mg/kg
